Just for reference, paper PMC11375963 is where these values come from.

experiment: Cytotoxicity; format: cell-based; conditions: mouse, BV2 microglial cells
Reported viability at 24 h, 5 µM values follow for various compounds
// units = %; emit number, no label

Recorded viability at 24 h, 5 µM, per entry:
compound	viability at 24 h, 5 µM / %
COC1=CC(=O)c2c(ccc3cc(OC)c(OC)c(OC)c23)C1=O	101
COc1cc(C(=O)O)ccc1O	103
COc1cc(O)cc2c1-c1c(O)cccc1CC2	105
COc1ccc2c(c1O)CCc1cc(O)cc(OC)c1-2	102
O=C(O)c1ccc(O)cc1 [Compound 10, p-hydroxybenzoic acid]	101

viability at 24 h, 5 µM recorded for this compound, "COc1cc2ccc3cccc(O)c3c2c(OC)c1O" , is 102

// viability at 24 h, 5 µM value for O=C(O)c1ccc(CO)cc1 [Compound 15, 4-hydroxymethyl benzoic acid] : 103

Value of viability at 24 h, 5 µM reported for the compound COc1cc(/C=C/C(=O)NCCc2ccc(O)cc2)ccc1O [Compound 17, N-trans-feruloyl tyramine] is 107

Sure, the documented viability at 24 h, 5 µM for O=Cc1ccc(O)cc1 [Compound 5, p-hydroxybenzaldehyde] is 105

Summary for this compound, "COc1cc2c(ccc3cc(OC)c(O)c(OC)c32)cc1O" : viability at 24 h, 5 µM is 106

What the record says about "COc1cc(O)c(Cc2ccc(O)cc2)c2c1-c1ccc(O)cc1CC2" : viability at 24 h, 5 µM is 108

The reported value for "COC1=CC(=O)c2ccc3cc(OC)c(OC)c(OC)c3c2C1=O" in terms of viability at 24 h, 5 µM is 99.9
